# PROTOCOL_DETAILS: DSSTox (CPDBAS) Carcinogenic Potency Database Summary SingleCellCall Results
# CONDITION_LABEL: animal chronic carcinogenicity bioassays, CPDB summary call
# Source text: The Carcinogenic Potency Database (CPDB) is a unique and widely used international resource of the results of over 6500 chronic, long-term animal cancer tests on over 1500 chemical substances. The CPDB provides easy access to the bioassay literature, with qualitative and quantitative analyses of both positive and negative experiments that have been published over the past 50 years in the general literature and by the National Cancer Institute/National Toxicology Program. […]
Calls of active or inactive are those of the source.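 The calls were made as follows: active = a tumor-causing dose value with its tumor site reported for any sex and species group of a rodent or other animal cancer study; inconclusive = only studies judged inadequate by the national testing program; inactive = tested in at least one study, none positive.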
Pick one and only one: active, inactive

Would you please look over these solved cases?
- CNC(=O)Oc1cccc2ccccc12: active
- CCCCC(CC)COP(=O)(OCC(CC)CCCC)OCC(CC)CCCC (centres undefined): active

*Q* State the result this test recorded for O=C(OOC(=O)c1ccccc1)c1ccccc1 .
*A* inactive

*Q* Which outcome did this test record for the compound O=c1ccc(=O)[nH][nH]1 ?
*A* inactive

*Q* Tell me the recorded outcome of this test for C=CCOc1ccc(CC(=O)O)cc1Cl .
*A* inactive

*Q* Status in this test for CN1C(=O)OC(C)(C)C1=O ?
*A* inactive

*Q* Record request — test call for Cc1cccc(Nc2cc(Cl)nc(SCC(=O)NCCO)n2)c1C
*A* active

*Q* For NCCc1ccc(O)c(O)c1 , what call appears in the results of this test?
*A* inactive

*Q* Dear all, I need the recorded test outcome for CN(N=O)c1ccc(N=O)cc1 , thank you.
*A* active

*Q* Hi, do you know how Cc1cc(O)c(C)c2c1OC(C)(CCCC(C)CCCC(C)CCCC(C)C)CC2 (centres undefined) came out in this test?
*A* active

----------
# PROTOCOL_DETAILS: DSSTox (CPDBAS) Carcinogenic Potency Database Summary SingleCellCall Results
# CONDITION_LABEL: animal chronic carcinogenicity bioassays, CPDB summary call
Activity calls are given as the source filed them.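 Rule for the calls: active = a tumor-causing dose value with its tumor site reported for any sex and species group of a rodent or other animal cancer study; inconclusive = only studies judged inadequate by the national testing program; inactive = tested in at least one study, none positive.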
Your answer must be one of the following: active, inactive

Use the examples below as a reference point.
- Clc1c(Cl)c(Cl)c(Cl)c(Cl)c1Cl: active
- c1ccoc1: active

*Q* What outcome does the record of this test show for O=P(=O)O ?
*A* inactive

*Q* For C[C@@H]1O[C@@H](OC[C@H]2O[C@@H](Oc3c(-c4ccc(O)c(O)c4)oc4cc(O)cc(O)c4c3=O)[C@H](O)[C@@H](O)[C@@H]2O)[C@H](O)[C@H](O)[C@H]1O , which call appears in the assay record?
*A* inactive

*Q* Entry O=S1OCC2C(CO1)C1(Cl)C(Cl)=C(Cl)C2(Cl)C1(Cl)Cl (stereo unspecified) : call = ?
*A* inactive

----------
# PROTOCOL_DETAILS: DSSTox (CPDBAS) Carcinogenic Potency Database Summary SingleCellCall Results
# CONDITION_LABEL: animal chronic carcinogenicity bioassays, CPDB summary call
Calls of active or inactive are those of the source.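 The calls were made as follows: active = a tumor-causing dose value with its tumor site reported for any sex and species group of a rodent or other animal cancer study; inconclusive = only studies judged inadequate by the national testing program; inactive = tested in at least one study, none positive.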
Hello, when you answer, please use one of the following outcomes: 1 for active, -1 for inactive

As a guide, the following entries are already answered.
- CN(N=O)c1ccc(/C=C/c2ccnc3ccccc23)cc1: 1
- ClC1=C(Cl)[C@@]2(Cl)[C@@H]3[C@@H](Cl)[C@H](Cl)C[C@@H]3C1(Cl)C2(Cl)Cl: 1
- Nc1ccc(-c2ccc(N)c(O)c2)cc1O: 1
- C=O: 1
- O=C([O-])C(=O)O.O=C([O-])C(=O)O.[K+].[K+].[O]=[Ti]: -1

*Q* How did this test come out for COP(=O)(OC)OC=C(Cl)Cl ?
*A* 1

*Q* Outcome? O=C(O)CCCc1ccc(N(CCCl)CCCl)cc1
*A* 1

*Q* State the result this test recorded for CCN=[N+]([O-])CC .
*A* 1

*Q* Write down the call the test reported for this molecule. Item: NC(=O)N(CCCO)N=O
*A* 1

*Q* Called result for O=C(Nc1ccc2c(c1)Cc1ccccc1-2)C(F)(F)F
*A* 1

*Q* What outcome does the record of this test show for C[C@]12CC[C@H](O)CC1=CC[C@@H]1[C@@H]2CC[C@]2(C)C(=O)CC[C@@H]12 ?
*A* 1

*Q* Per the assay record, what outcome was assigned to COc1cc2c(c3oc4cccc(O)c4c(=O)c13)C1C=COC1O2 (configuration not stated) ?
*A* 1

----------
# PROTOCOL_DETAILS: DSSTox (CPDBAS) Carcinogenic Potency Database Summary SingleCellCall Results
# CONDITION_LABEL: animal chronic carcinogenicity bioassays, CPDB summary call
The source made the active and inactive calls.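 The calls were made as follows: active = a tumor-causing dose value with its tumor site reported for any sex and species group of a rodent or other animal cancer study; inconclusive = only studies judged inadequate by the national testing program; inactive = tested in at least one study, none positive.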
Your reply should match one of these outcome classes. active, inactive

Worked set:
* NC(=O)Cc1cccc2ccccc12 | inactive
* COC(=O)C(c1ccccc1)C1CCCCN1 (centres undefined) | active
* O=C1OC(C(O)CO)C(O)=C1O (centres undefined) | inactive

*Q* Tell me the recorded outcome of this test for O=C1NCCN1 .
*A* inactive

*Q* Which outcome did this test record for the compound NC(=O)NNc1ccccc1 ?
*A* active

----------
# PROTOCOL_DETAILS: DSSTox (CPDBAS) Carcinogenic Potency Database Summary SingleCellCall Results
# CONDITION_LABEL: animal chronic carcinogenicity bioassays, CPDB summary call
Calls of active or inactive are those of the source.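 How the source made its calls: active means a tumor-causing dose value with its tumor site reported for any sex and species group of a rodent or other animal cancer study; inconclusive means only studies judged inadequate by the national testing program; inactive means tested in at least one study, none positive.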
# output must be one of class 1 = active, class 0 = inactive

• COP(=S)(OC)SCn1nnc2ccccc2c1=O = class 0
• O=C(O)C(Cl)Cl = class 1
• NC(=S)Nc1cccc2ccccc12 = class 0
• Oc1c(Cl)cc(Cl)cc1Sc1cc(Cl)cc(Cl)c1O = class 0

*Q* What call does the record list for CC(O)CNC(=O)N(N=O)C(C)Cl (stereo not given) ?
*A* class 1

*Q* // return assay outcome for BrCCBr
*A* class 1

*Q* Test call, this compound: O=NN1CCC(=O)NC1=O
*A* class 1

----------
# PROTOCOL_DETAILS: DSSTox (CPDBAS) Carcinogenic Potency Database Summary SingleCellCall Results
# CONDITION_LABEL: animal chronic carcinogenicity bioassays, CPDB summary call
The source made the active and inactive calls.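 The calls were made as follows: active = a tumor-causing dose value with its tumor site reported for any sex and species group of a rodent or other animal cancer study; inconclusive = only studies judged inadequate by the national testing program; inactive = tested in at least one study, none positive.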
Write down one outcome, taken from active, inactive

Known results for compounds:
• ClCc1ccccn1 = inactive
• FC(F)(Cl)C(F)(Cl)Cl = inactive

*Q* Hi, sorry to bother you, what did the test record for C=C(C)C ?
*A* active

*Q* I would be grateful if you could indicate the recorded call for CCCCCCCC(=O)OCC(COC(=O)CCCCCCC)OC(=O)CCCCCCC .
*A* active

*Q* Assay outcome for O=C1OC(O)C(C(Cl)Cl)=C1Cl (stereo not drawn) : what was it?
*A* active

----------
# PROTOCOL_DETAILS: DSSTox (CPDBAS) Carcinogenic Potency Database Summary SingleCellCall Results
# CONDITION_LABEL: animal chronic carcinogenicity bioassays, CPDB summary call
The source made the active and inactive calls.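 How the source made its calls: active means a tumor-causing dose value with its tumor site reported for any sex and species group of a rodent or other animal cancer study; inconclusive means only studies judged inadequate by the national testing program; inactive means tested in at least one study, none positive.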
Hi there, use one of these labels in your reply, thanks! active, inactive

• CCCCCCCCCCN(C)N=O = active
• N#CS = inactive
• C=C1C(CCl)(CCl)C2(Cl)C(Cl)C(Cl)C1(Cl)C2(Cl)Cl (centres undefined) = active

*Q* Please state the recorded outcome for this molecule: O=C1c2ccccc2C(=O)N1SC(Cl)(Cl)Cl
*A* active

*Q* How was CCCCC(CC)CO (centres undefined) classified in this test?
*A* active

*Q* So what was the verdict on O=[N+]([O-])c1ccc2c(c1)Cc1ccccc1-2 in this test?
*A* active

----------
# PROTOCOL_DETAILS: DSSTox (CPDBAS) Carcinogenic Potency Database Summary SingleCellCall Results
# CONDITION_LABEL: animal chronic carcinogenicity bioassays, CPDB summary call
# Excerpt: The Carcinogenic Potency Database (CPDB) is a unique and widely used international resource of the results of over 6500 chronic, long-term animal cancer tests on over 1500 chemical substances. The CPDB provides easy access to the bioassay literature, with qualitative and quantitative analyses of both positive and negative experiments that have been published over the past 50 years in the general literature and by the National Cancer Institute/National Toxicology Program. […]
Active and inactive are the calls of the source.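 How the source made its calls: active means a tumor-causing dose value with its tumor site reported for any sex and species group of a rodent or other animal cancer study; inconclusive means only studies judged inadequate by the national testing program; inactive means tested in at least one study, none positive.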
Your response should consist of one outcome taken from True for active, False for inactive

*Q* How was FC(Cl)C(F)(F)F (centres undefined) classified in this test?
*A* False

*Q* Please share the test call associated with Cc1cc(C)c(S(=O)(=O)O)cc1N=Nc1cc(S(=O)(=O)O)c2ccccc2c1O .
*A* True

*Q* GET /call?item= NNc1nc(-c2ccc([N+](=O)[O-])cc2)cs1 returns the recorded outcome of this test.
*A* True

*Q* Entry O=C(O)c1ccc([N+](=O)[O-])cc1 : call = ?
*A* True

*Q* I'd appreciate the recorded outcome for OCCO from this test.
*A* False

*Q* Hi team, can someone confirm the assay call for CCC(Cl)CCC(Cl)C(Cl)CC(Cl)C(Cl)C(Cl)CCl (centres undefined) ?
*A* True

*Q* Assay result, entry Cc1cc(-c2ccc(N)c(C)c2)ccc1N — outcome?
*A* True

*Q* # outcome recorded in this test, key = COc1cc2c(c3oc(=O)c4c(c13)CCOC4=O)C1C=COC1O2 (centres undefined)
*A* True

*Q* Any idea what this test logged for CC1=C(CC(=O)O)c2cc(F)ccc2/C1=C\c1ccc(S(C)(=O)=O)cc1 ?
*A* False
